Tested on: Rattus norvegicus
Assay: Distribution of radioactivity of radiolabeled compound in heart of female rats 5 minutes after intravenous administration
Type: ADME, organism-based
Details: in vivo
Measured attribute: Dose (%)

- Compound: "CCCCCCCCCCCCCCCC(=O)OCC(COC(=O)CCCCCCCCCCCCCCC)OC(=O)C(CC)Cc1c(I)cc(I)c(N)c1I (centres undefined)"
  Readout units: "%"
  Dose: 0.6

1. CCCCCCCCCCCCCCCC(=O)OCC(COC(=O)CCCCCCCCCCCCCCC)OC(=O)CCCCCCCCCCCc1c(I)cc(I)c(N)c1I
2. CCCCCCCCCCCCCCCC(=O)OCC(COC(=O)CCCCCCCCCCCCCCC)OC(=O)CCCCCCCCCCCCCCCCc1c(I)cc(I)c(N)c1I
[ask] Hi team, can someone confirm which has the larger Dose: 1 or 2 ? Thanks. Reply briefly: the label of your chosen item.
[reply] 1

###

Tested on: Rattus norvegicus
Assay: Distribution of radioactivity of radiolabeled compound in lung of female rats 5 minutes after intravenous administration
Format: ADME, organism-based
Details: in vivo
Measured attribute: Dose (%)

// worked examples, Dose included
- Compound: "CCCCCCCCCCCCCCCC(=O)OCC(COC(=O)CCCCCCCCCCCCCCC)OC(=O)CCCCCCCCCCCCCCCCc1c(I)cc(I)c(N)c1I"
  Test system: "Rattus norvegicus"
  Dose (%): 3.16
- Compound: "Nc1c(I)cc(I)c(CCCCCCCCCCCCCCCCC(=O)O)c1I"
  Test system: "Rattus norvegicus"
  Dose (%): 1.11
- Compound: "CCCCCCCCCCCCCCCC(=O)OCC(COC(=O)CCCCCCCCCCCCCCC)OC(=O)Cc1c(I)cc(I)c(N)c1I"
  Test system: "Rattus norvegicus"
  Dose (%): 1.41
- Compound: "CCCCCCCCCCCCCCCC(=O)OCC(COC(=O)CCCCCCCCCCCCCCC)OC(=O)C(CC)Cc1c(I)cc(I)c(N)c1I (centres undefined)"
  Test system: "Rattus norvegicus"
  Dose (%): 1.15

A. CCCCCCCCCCCCCCCC(=O)OCC(COC(=O)CCCCCCCCCCCCCCC)OC(=O)CCc1c(I)cc(I)c(N)c1I
B. CCC(Cc1c(I)cc(I)c(N)c1I)C(=O)O (centres undefined) [IOPANOIC ACID]
[ask] Consider entries A and B . Which has the numerically lower Dose? Reply briefly: the label of your chosen item.
[reply] B

P. Nc1c(I)cc(I)c(CCC(=O)O)c1I
Q. Nc1c(I)cc(I)c(CC(=O)O)c1I
[ask] Consider entries P and Q . Which has the numerically lower Dose? Reply briefly: the label of your chosen item.
[reply] P

###

Tested on: Rattus norvegicus
Experiment: Distribution of radioactivity of radiolabeled compound in blood of female rats 5 minutes after intravenous administration
Format: ADME, organism-based
Conditions: in vivo
Measured attribute: Dose (%)

- Compound: "CCCCCCCCCCCCCCCC(=O)OCC(COC(=O)CCCCCCCCCCCCCCC)OC(=O)CCCCCCCCCCCc1c(I)cc(I)c(N)c1I"
  Result value: 2.5
- Compound: "CCCCCCCCCCCCCCCC(=O)OCC(COC(=O)CCCCCCCCCCCCCCC)OC(=O)Cc1c(I)cc(I)c(N)c1I"
  Result value: 6.23
- Compound: "Nc1c(I)cc(I)c(CCC(=O)O)c1I"
  Result value: 2.52
- Compound: "CCC(Cc1c(I)cc(I)c(N)c1I)C(=O)O (stereo not given)"
  Result value: 2.19
- Compound: "Nc1c(I)cc(I)c(CC(=O)O)c1I"
  Result value: 5.44
- Compound: "CCCCCCCCCCCCCCCC(=O)OCC(COC(=O)CCCCCCCCCCCCCCC)OC(=O)C(CC)Cc1c(I)cc(I)c(N)c1I (stereo not given)"
  Result value: 6.04
- Compound: "CCCCCCCCCCCCCCCC(=O)OCC(COC(=O)CCCCCCCCCCCCCCC)OC(=O)CCCCCCCCCCCCCCCCc1c(I)cc(I)c(N)c1I"
  Result value: 2.5
- Compound: "Nc1c(I)cc(I)c(CCCCCCCCCCCCCCCCC(=O)O)c1I"
  Result value: 2.25

1. Nc1c(I)cc(I)c(CCCCCCCCCCCC(=O)O)c1I
2. CCCCCCCCCCCCCCCC(=O)OCC(COC(=O)CCCCCCCCCCCCCCC)OC(=O)CCc1c(I)cc(I)c(N)c1I
[ask] Hi team, can someone confirm which has the larger Dose: 1 or 2 ? Thanks. Reply briefly: the label of your chosen item.
[reply] 2

###

Test system: Rattus norvegicus
Assay: Percentage parent compound in rat liver 30 minutes after iv administration of the radiolabeled compound by thin-layer chromatography
Type: functional
Measured attribute: Activity (%)
The reply should contain only the number, in %.

[ask] Which measured Activity value corresponds to CCCCCCCCCCCCCCCC(=O)OCC(COC(=O)CCCCCCCCCCCCCCC)OC(=O)CCCCCCCCCCCCCCCCc1c(I)cc(I)c(N)c1I ?
[reply] 40.8

[ask] Thanks! And CCCCCCCCCCCCCCCC(=O)OCC(COC(=O)CCCCCCCCCCCCCCC)OC(=O)Cc1c(I)cc(I)c(N)c1I ?
[reply] 89

[ask] Thanks! And CCCCCCCCCCCCCCCC(=O)OCC(COC(=O)CCCCCCCCCCCCCCC)OC(=O)CCc1c(I)cc(I)c(N)c1I ?
[reply] 47.7

[ask] Thanks! And CCCCCCCCCCCCCCCC(=O)OCC(COC(=O)CCCCCCCCCCCCCCC)OC(=O)CCCCCCCCCCCc1c(I)cc(I)c(N)c1I ?
[reply] 42.9

###

Tested on: Rattus norvegicus
Test: Distribution of radioactivity of radiolabeled compound in lung of female rats 30 minutes after intravenous administration
Format: ADME, organism-based
Settings: in vivo, 0.5 h
Measured attribute: Dose (%)

// worked examples, Dose included
- Compound structure string: "Nc1c(I)cc(I)c(CCCCCCCCCCCCCCCCC(=O)O)c1I"
  Readout units: "%"
  Result value: 0.84
- Compound structure string: "Nc1c(I)cc(I)c(CC(=O)O)c1I"
  Readout units: "%"
  Result value: 1.07
- Compound structure string: "Nc1c(I)cc(I)c(CCCCCCCCCCCC(=O)O)c1I"
  Readout units: "%"
  Result value: 0.66
- Compound structure string: "CCCCCCCCCCCCCCCC(=O)OCC(COC(=O)CCCCCCCCCCCCCCC)OC(=O)CCc1c(I)cc(I)c(N)c1I"
  Readout units: "%"
  Result value: 0.93

P. Nc1c(I)cc(I)c(CCC(=O)O)c1I
Q. CCCCCCCCCCCCCCCC(=O)OCC(COC(=O)CCCCCCCCCCCCCCC)OC(=O)CCCCCCCCCCCCCCCCc1c(I)cc(I)c(N)c1I
[ask] Hi team, can someone confirm which has the larger Dose: P or Q ? Thanks. Reply briefly: the label of your chosen item.
[reply] Q
(Q: 1.72%, P: 0.45%)

###

Tested on: Rattus norvegicus
Assay: Percentage parent compound in rat plasma 5 minutes after iv administration of the radiolabeled compound by thin-layer chromatography
Format: functional
Measured attribute: Activity (%)
The reply should contain only the number, in %.

- Compound structure string: "CCCCCCCCCCCCCCCC(=O)OCC(COC(=O)CCCCCCCCCCCCCCC)OC(=O)CCCCCCCCCCCCCCCCc1c(I)cc(I)c(N)c1I"
  Activity (%): 32.6
- Compound structure string: "CCCCCCCCCCCCCCCC(=O)OCC(COC(=O)CCCCCCCCCCCCCCC)OC(=O)CCc1c(I)cc(I)c(N)c1I"
  Activity (%): 75.5
- Compound structure string: "CCCCCCCCCCCCCCCC(=O)OCC(COC(=O)CCCCCCCCCCCCCCC)OC(=O)CCCCCCCCCCCc1c(I)cc(I)c(N)c1I"
  Activity (%): 43.2

[ask] Could you share what Activity was measured for CCCCCCCCCCCCCCCC(=O)OCC(COC(=O)CCCCCCCCCCCCCCC)OC(=O)Cc1c(I)cc(I)c(N)c1I , tested on Rattus norvegicus?
[reply] 97.7

###

Test system: Rattus norvegicus
Test: Distribution of radioactivity of radiolabeled compound in kidney of female rats 5 minutes after intravenous administration
Type: ADME, organism-based
Settings: in vivo
Measured attribute: Dose (%)

// worked examples, Dose included
- Compound: "CCCCCCCCCCCCCCCC(=O)OCC(COC(=O)CCCCCCCCCCCCCCC)OC(=O)C(CC)Cc1c(I)cc(I)c(N)c1I (stereo not given)"
  Readout units: "%"
  Dose: 0.65
- Compound: "CCC(Cc1c(I)cc(I)c(N)c1I)C(=O)O (stereo not given)"
  Readout units: "%"
  Dose: 0.71
- Compound: "Nc1c(I)cc(I)c(CCCCCCCCCCCCCCCCC(=O)O)c1I"
  Readout units: "%"
  Dose: 0.48
- Compound: "CCCCCCCCCCCCCCCC(=O)OCC(COC(=O)CCCCCCCCCCCCCCC)OC(=O)Cc1c(I)cc(I)c(N)c1I"
  Readout units: "%"
  Dose: 0.93

1. Nc1c(I)cc(I)c(CCC(=O)O)c1I
2. Nc1c(I)cc(I)c(CCCCCCCCCCCC(=O)O)c1I
3. CCCCCCCCCCCCCCCC(=O)OCC(COC(=O)CCCCCCCCCCCCCCC)OC(=O)CCCCCCCCCCCCCCCCc1c(I)cc(I)c(N)c1I
4. CCCCCCCCCCCCCCCC(=O)OCC(COC(=O)CCCCCCCCCCCCCCC)OC(=O)CCc1c(I)cc(I)c(N)c1I
5. Nc1c(I)cc(I)c(CC(=O)O)c1I
[ask] Sort (5 compounds) by Dose: min first. Give the order by naming the labels one after another as requested.
[reply] 3, 2, 4, 1, 5
